- systemTested: T1, EsCas13d, nuclease-dead (Eubacterium siraeum, UniProt B0MS50, R295A;H300A;R849A;H854A)
- T1 sequence: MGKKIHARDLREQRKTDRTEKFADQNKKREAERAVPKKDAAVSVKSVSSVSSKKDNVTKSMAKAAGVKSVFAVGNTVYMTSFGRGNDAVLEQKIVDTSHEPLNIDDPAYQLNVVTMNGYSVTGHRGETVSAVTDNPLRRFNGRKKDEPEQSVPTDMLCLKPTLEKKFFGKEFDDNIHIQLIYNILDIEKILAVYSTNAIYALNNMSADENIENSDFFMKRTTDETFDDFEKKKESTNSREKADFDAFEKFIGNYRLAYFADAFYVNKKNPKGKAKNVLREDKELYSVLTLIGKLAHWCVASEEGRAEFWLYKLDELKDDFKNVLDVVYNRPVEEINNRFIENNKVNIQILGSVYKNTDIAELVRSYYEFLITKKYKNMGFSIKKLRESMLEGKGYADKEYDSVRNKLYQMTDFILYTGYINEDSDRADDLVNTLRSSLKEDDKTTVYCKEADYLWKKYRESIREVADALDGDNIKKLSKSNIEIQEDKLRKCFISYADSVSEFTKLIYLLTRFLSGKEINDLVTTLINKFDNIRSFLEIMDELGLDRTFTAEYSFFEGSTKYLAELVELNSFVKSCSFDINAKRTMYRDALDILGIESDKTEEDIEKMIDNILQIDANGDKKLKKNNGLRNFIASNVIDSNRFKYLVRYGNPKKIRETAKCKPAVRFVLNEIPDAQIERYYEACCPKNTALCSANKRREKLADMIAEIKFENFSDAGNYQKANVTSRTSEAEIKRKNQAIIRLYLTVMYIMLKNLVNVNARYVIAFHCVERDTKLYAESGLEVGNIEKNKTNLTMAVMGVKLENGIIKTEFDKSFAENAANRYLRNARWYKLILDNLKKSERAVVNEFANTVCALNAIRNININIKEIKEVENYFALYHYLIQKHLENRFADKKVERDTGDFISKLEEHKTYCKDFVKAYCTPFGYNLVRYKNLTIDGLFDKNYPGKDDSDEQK
- method: crRNA (strand 1, pre-loaded); Mg2+; 40 mM Tris-HCl pH 7.5, 150 mM NaCl, 6 mM MgCl2, 1 mM DTT, 0.1% Tween-20, 0.2 mg/ml BSA; 25 C; 10 min per concentration, then washed
- assayConditions: tags: His6-TwinStrep-SUMO cleaved; N-terminal SNAP kept (SNAP-Surface 488); label: 3' end held by stalled T7 RNA polymerase
pKd: −log10 of the molar value.
parameterMeasured: pKd

binder	obsValue
target 1 insA 3' of 13,insU 3' of 2 (mixed) RNA 1: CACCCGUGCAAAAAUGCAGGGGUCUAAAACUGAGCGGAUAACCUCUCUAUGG RNA 2: GGGAAUGGAUCCACAUCUACGAAUUCGUACCAUAGAGAGAGUUAUCCGCUCUACCGAGAUCGGAAGAGCACACGU	8.37
target 1 MT 5'PFS GUU 3'PFS UAA (mixed) RNA 1: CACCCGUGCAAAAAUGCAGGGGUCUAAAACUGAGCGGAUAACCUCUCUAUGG RNA 2: GGGAAUGGAUCCACAUCUACGAAUUCGUUCCAUAGAGAGGUUAUCCGCUCAUAAAGAUCGGAAGAGCACACGU	7.68
target 3 insU 3' of 5 (mixed) RNA 1: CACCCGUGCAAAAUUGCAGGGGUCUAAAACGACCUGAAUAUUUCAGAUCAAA RNA 2: GGGAAUGGAUCCACAUCUACGAAUUCGUUUUUGAUCUGAAAUAUUCAUGGUCUGCAGAUCGGAAGAGCACACGU	8.18
target 2 MT 5'PFS UGA 3'PFS CGA (mixed) RNA 1: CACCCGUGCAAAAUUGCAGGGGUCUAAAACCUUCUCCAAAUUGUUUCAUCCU RNA 2: GGGAAUGGAUCCACAUCUACGAAUUCUGAAGGAUGAAACAAUUUGGAGAAGCGAAGAUCGGAAGAGCACACGU	8.14
target 1 insA 3' of 15,insC 3' of 13 (mixed) RNA 1: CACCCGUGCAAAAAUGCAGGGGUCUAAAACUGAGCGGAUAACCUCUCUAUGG RNA 2: GGGAAUGGAUCCACAUCUACGAAUUCGUACCAUAGAGAAGCGUUAUCCGCUCACCGAGAUCGGAAGAGCACACGU	7.79
target 2 MT 5'PFS GUG 3'PFS CUA (mixed) RNA 1: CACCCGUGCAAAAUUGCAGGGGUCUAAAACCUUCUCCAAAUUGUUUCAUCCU RNA 2: GGGAAUGGAUCCACAUCUACGAAUUCGUGAGGAUGAAACAAUUUGGAGAAGCUAAGAUCGGAAGAGCACACGU	8.07
target 1 MT 5'PFS GUC 3'PFS CAU (mixed) RNA 1: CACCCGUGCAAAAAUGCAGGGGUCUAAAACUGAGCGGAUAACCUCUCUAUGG RNA 2: GGGAAUGGAUCCACAUCUACGAAUUCGUCCCAUAGAGAGGUUAUCCGCUCACAUAGAUCGGAAGAGCACACGU	7.61
